# assay.setup: in methanol, 298.15 K

{"line.notation": "NC(=O)N/N=C/c1ccc([N+](=O)[O-])o1", "solubility (mole fraction)": 0.000284}

* * *

# assay.setup: in water, 293.15 K
measured.property: solubility (mole fraction)

{"line.notation": "NC(=O)N/N=C/c1ccc([N+](=O)[O-])o1", "observed": "1.07e-05"}

* * *

# assay.setup: in methanol, 303.15 K

{"line.notation": "NC(=O)N/N=C/c1ccc([N+](=O)[O-])o1", "solubility (mole fraction)": 0.000338}

* * *

# assay.setup: in acetonitrile, 298.15 K

{"line.notation": "NC(=O)N/N=C/c1ccc([N+](=O)[O-])o1", "solubility (mole fraction)": 0.000168}
